Tested on: P. falciparum NF54 strain
Test summary: Antiplasmodial activity, parasite lactate dehydrogenase assay, NF54
Type: cell-based, Plasmodium falciparum
Condition parameters: Plasmodium falciparum, NF54, 72 h, parasite lactate dehydrogenase assay over 72 h; read-out: Pf IC50 ± SD NF54
Record form. Attribute: IC50. Fill in for each entry.

Could you share which IC50 value was measured for CN1CCC(Nc2cc(=O)[nH]c3ccc(-c4ccc(C(F)(F)F)nc4)nc23)CC1 ?
4200 nM

Same thing, different molecule: FC(F)(F)c1ccc(-c2ccc3nccc(NCC4CCNCC4)c3n2)cn1
65 nM

Same thing, different molecule: N[C@H]1CCN(c2ccnc3ccc(-c4ccc(C(F)(F)F)nc4)nc23)C1
31 nM

###

Test summary: Solubility, miniaturized shake flask method
Condition parameters: aqueous solution
Observed property: solubility at 20 h (µM)
Record the value in µM, omitting the unit from your answer.

Could you share which solubility at 20 h value was measured for CS(=O)(=O)c1cccc(-c2ccc3nccc(NC4CCCNC4)c3n2)c1 (stereo not shown) ?
195

Same thing, different compound: Cc1nc(C(F)(F)F)ccc1-c1ccc2nccc(NC3CCN(C)CC3)c2n1
195

Same thing, different compound: O[C@H]1CNCC[C@H]1Nc1ccnc2ccc(-c3ccc(C(F)(F)F)nc3)nc12 (relative stereo)
200

Same thing, different compound: O[C@H]1CNCC[C@@H]1Nc1ccnc2ccc(-c3ccc(C(F)(F)F)nc3)nc12 (racemic)
200

###

Test system: PvPI4K (Plasmodium vivax, UniProt A5KB26)
Sequence (A5KB26 entry or part of it): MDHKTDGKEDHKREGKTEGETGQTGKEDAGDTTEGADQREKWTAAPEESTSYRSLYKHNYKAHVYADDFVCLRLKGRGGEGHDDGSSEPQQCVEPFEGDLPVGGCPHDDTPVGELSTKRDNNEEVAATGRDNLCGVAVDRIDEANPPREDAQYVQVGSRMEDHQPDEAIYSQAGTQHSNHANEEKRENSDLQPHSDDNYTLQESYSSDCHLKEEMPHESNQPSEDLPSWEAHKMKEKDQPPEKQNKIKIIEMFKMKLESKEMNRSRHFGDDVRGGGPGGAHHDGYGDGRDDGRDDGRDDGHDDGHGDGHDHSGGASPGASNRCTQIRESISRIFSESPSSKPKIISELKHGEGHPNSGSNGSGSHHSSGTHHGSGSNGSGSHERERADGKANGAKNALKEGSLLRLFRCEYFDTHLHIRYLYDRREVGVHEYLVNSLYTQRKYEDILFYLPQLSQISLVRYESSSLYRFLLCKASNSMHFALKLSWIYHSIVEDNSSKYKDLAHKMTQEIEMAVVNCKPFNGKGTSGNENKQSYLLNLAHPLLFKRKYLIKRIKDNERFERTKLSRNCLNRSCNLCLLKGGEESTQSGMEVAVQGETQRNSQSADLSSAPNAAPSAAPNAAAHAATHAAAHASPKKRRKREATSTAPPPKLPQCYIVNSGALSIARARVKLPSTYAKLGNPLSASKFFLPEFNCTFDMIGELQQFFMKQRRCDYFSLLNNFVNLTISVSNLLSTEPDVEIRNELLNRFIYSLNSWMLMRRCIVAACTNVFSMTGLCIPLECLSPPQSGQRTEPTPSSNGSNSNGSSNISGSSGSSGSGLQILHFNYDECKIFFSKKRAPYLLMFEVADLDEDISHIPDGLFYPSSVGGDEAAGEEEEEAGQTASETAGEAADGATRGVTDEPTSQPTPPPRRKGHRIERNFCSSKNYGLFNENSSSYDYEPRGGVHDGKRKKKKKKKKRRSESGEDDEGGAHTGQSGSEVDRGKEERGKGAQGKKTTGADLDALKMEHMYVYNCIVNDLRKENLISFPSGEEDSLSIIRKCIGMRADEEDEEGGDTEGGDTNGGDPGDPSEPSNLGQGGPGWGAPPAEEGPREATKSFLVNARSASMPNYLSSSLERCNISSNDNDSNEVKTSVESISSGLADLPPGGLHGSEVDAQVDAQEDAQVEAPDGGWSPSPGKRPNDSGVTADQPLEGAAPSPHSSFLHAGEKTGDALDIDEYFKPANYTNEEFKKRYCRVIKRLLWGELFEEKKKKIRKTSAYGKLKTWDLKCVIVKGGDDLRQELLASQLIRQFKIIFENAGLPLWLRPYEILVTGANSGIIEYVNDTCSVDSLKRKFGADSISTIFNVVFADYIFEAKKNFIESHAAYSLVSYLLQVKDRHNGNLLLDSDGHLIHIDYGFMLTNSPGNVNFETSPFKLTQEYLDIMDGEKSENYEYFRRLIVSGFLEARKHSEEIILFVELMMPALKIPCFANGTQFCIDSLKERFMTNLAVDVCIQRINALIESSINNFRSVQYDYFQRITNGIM
Test summary: biochemical
Condition parameters: purified recombinant PvPI4K, 10 μM ATP, ADP-Glo; mean of N ≥ 2; read-out: PvPI4K IC50 ± SD
pIC50: −log10 of the molar value.
Assign class by pIC50: not lower than 7 means TRUE; lower than 7 means FALSE.

Form field: pIC50 at least 7? Entry: CN1CCC(Nc2ccnc3ccc(-c4cccnc4C(F)(F)F)nc23)CC1 [Compound 30]
FALSE

Same thing, different compound: NC1CCN(c2ccnc3ccc(-c4ccc(C(F)(F)F)nc4)nc23)CC1 [Compound 18]
FALSE

Same thing, different compound: CN1CCC(Nc2cc(=O)[nH]c3ccc(-c4ccc(C(F)(F)F)nc4)nc23)CC1 [Compound 37]
FALSE

Same thing, different compound: CN1CCC(Nc2ccnc3ccc(-c4ccc(OCCCO)nc4)nc23)CC1 [Compound 35]
TRUE

Same thing, different compound: CN1CCC(Nc2cc(N)nc3ccc(-c4ccc(C(F)(F)F)nc4)nc23)CC1 [Compound 36]
FALSE

Same thing, different compound: CN1CCC(Nc2ccnc3ccc(-c4ccc(C(F)(F)F)nc4)nc23)CC1 [Compound 21]
FALSE

Same thing, different compound: FC(F)(F)c1ccc(-c2ccc3nccc(OC4CCNCC4)c3n2)cn1 [Compound 19]
FALSE

Same thing, different compound: OCCN1CCC(Nc2ccnc3ccc(-c4ccc(C(F)(F)F)nc4)nc23)CC1 [Compound 22]
FALSE

Same thing, different compound: CS(=O)(=O)c1cccc(-c2ccc3nccc(N4CC[C@@H](NC(N)=O)C4)c3n2)c1 [Compound 11]
TRUE

Same thing, different compound: FC(F)(F)c1ccc(-c2ccc3nccc(NCC4CCNCC4)c3n2)cn1 [Compound 20]
FALSE

Same thing, different compound: FC(F)(F)c1ccc(-c2ccc3nccc(NC4CCCNC4)c3n2)cn1 (centres unmarked) [Compound 12]
FALSE

Same thing, different compound: N[C@@H]1CCN(c2ccnc3ccc(-c4ccc(C(F)(F)F)nc4)nc23)C1 [Compound 13]
FALSE

Same thing, different compound: Cc1nc(C(F)(F)F)ccc1-c1ccc2nccc(NC3CCN(C)CC3)c2n1 [Compound 31]
FALSE

The values you see were collected from paper PMC11247499.
